molecular target: human-cGAS (h-cGAS) (Homo sapiens)
Sequence (Q8N884 whole entry): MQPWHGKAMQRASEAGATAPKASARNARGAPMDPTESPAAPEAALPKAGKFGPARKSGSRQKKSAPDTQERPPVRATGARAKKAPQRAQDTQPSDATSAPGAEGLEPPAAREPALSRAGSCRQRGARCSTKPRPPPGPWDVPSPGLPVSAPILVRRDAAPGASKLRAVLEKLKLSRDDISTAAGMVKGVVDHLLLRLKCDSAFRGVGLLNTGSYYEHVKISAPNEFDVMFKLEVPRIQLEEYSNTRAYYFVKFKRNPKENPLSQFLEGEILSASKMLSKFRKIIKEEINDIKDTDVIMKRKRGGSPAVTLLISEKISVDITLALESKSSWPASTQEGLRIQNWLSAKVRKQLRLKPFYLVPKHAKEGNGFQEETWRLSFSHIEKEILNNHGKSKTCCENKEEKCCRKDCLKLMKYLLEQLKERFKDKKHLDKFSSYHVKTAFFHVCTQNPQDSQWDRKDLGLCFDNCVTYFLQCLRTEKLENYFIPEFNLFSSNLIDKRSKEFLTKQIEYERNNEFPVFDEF
pIC50: −log10 of the molar value.
For each record, write down the corresponding pIC50.

{"Molecule": "CSc1nnc(NC(=O)c2nnc(N3CCC(O)C3)o2)s1 (stereo not drawn) [Compound 116]", "Measured target": "human-cGAS (h-cGAS) (Homo sapiens)", "pIC50": "6.00 to 6.30"}
{"Molecule": "CSc1nnc(NC(=O)c2nnc(N3CCCC[C@@H]3c3ccccc3)o2)s1 (single isomer, unassigned) [Compound 121*]", "Measured target": "human-cGAS (h-cGAS) (Homo sapiens)", "pIC50": "6.00 to 6.30"}
{"Molecule": "CSc1nnc(NC(=O)c2cc(-c3ccccc3-c3cccc(CC(=O)O)c3)cc(=O)o2)s1 [Compound 177]", "Measured target": "human-cGAS (h-cGAS) (Homo sapiens)", "pIC50": "6.00 to 6.30"}

Required: pIC50, one value per molecule below.
1. CNc1nnc(NC(=O)c2onc3c2ccc2cccnc23)s1 [Compound 280]
2. O=C(Nc1nnc(-c2ccccc2Cl)s1)c1cc(CCO)no1 [Compound 179]
3. CSc1nnc(NC(=O)c2onc3ccc(F)cc23)s1 [Compound 223]
4. CN(C)C(=O)c1cc(C(=O)Nc2nnc(-c3ccccc3Cl)s2)on1 [Compound 87]

### Response
["≤ 6.00", "6.30 to 7.00", "6.00 to 6.30", "6.00 to 6.30"]
